Attribution: ChEMBL document CHEMBL1145589

Test system: LNCaP
assay.summary: Inhibition of cell proliferation in human LNCAP cells
Assay type: functional, cell-based
measured.quantity: pIC50
# reply with the number alone; pIC50 is -log10 of concentration in mol/L

Look up pIC50 for this molecule: `NC(=O)c1ccc(-n2c3c(c4ccccc42)C(=O)CCC3)cc1NC1CCOCC1`
6.15

###

System: MDA-MB-231
assay.summary: Inhibition of cell proliferation in human MDA-MB-231 cells
Type: functional, cell-based
measured.quantity: pIC50
Lab note — pIC50 values are minus log10 of concentrations in M.

For the molecule `NC(=O)c1ccc(-n2c3c(c4ccccc42)C(=O)CCC3)cc1NC1CCOCC1` , what pIC50 is on record?
6.02
